Recorded values, source the supplement of paper PMC10567573.

B1: RAB11A (parent)
chain: AVPTDEARAFAEKNGLSFIETSAL

Variants of: B1
Assay: protein stability index of a GFP-peptide fusion (GPS, HEK-293T) (PSI 1-6); higher = more stable;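 note: lentivirally expressed fusions sorted by FACS into six bins by GFP to DsRed ratio, PSI derived from sequencing read proportions per bin multiplied by bin number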
Settings: c terminus: a fixed tail appended
Outcome Measure: protein stability index
Give bare numbers.

Examples from the recorded data:
| Sequence Content | protein stability index |
| --- | --- |
| AVPTDEARFFAEKNGLSFIETSAL [A9F] | 2.1 |
| AVPTDEARAFAEKNGLSFIETYAL [S22Y] | 2.08 |

# per-item lookup of protein stability index; items listed below
1. AVPTDEARAFAEKNGLSFNETSAL [I19N]
2. AVPTDEARAFAEKNGLSFIENSAL [T21N]
3. AVPTDEARAFYEKNGLSFIETSAL [A11Y]

Solution:
1. 4.43
2. 2.47
3. 2.2
